Answer each item with its documented pest or weed control at 200 g/ha.
tested on: Lolium perenne; assay: Pre-emergence herbicidal assay, 96 cell trays, glasshouse; type: in vivo; details: 168 h, second trial (Table 2), Lollium, 0.2 kg/ha, assessed 7 days after treatment, read-out: % control of plant growth

Hi there! I need pest or weed control at 200 g/ha for each item below, if you can.
1. C#CCN1C(=O)C2(CC2)Oc2cc(F)c(N3C(=O)C4CCCCN4C3=O)cc21 (centres unmarked)
2. C#CCN1C(=O)C2(CC2)Oc2cc(F)c(N3C(=O)C=C(C(F)(F)F)C3=O)cc21
3. CC(C(=O)O)N1C(=O)C2(CC2)Oc2cc(F)c(N3C(=O)c4ccc(F)cc4C3=O)cc21 (centres unmarked)
4. O=C1c2ccc(F)cc2C(=O)N1c1cc2c(cc1F)OC1(CC1)C(=O)N2CC#CI
5. CCOC(=O)C(C)N1C(=O)C2(CC2)Oc2cc(F)c(N3C(=O)C=C(C(F)(F)F)C3=O)cc21 (centres unmarked)
6. C#CCN1C(=O)C2(CC2)Oc2cc(F)c(-n3c(=O)cc(C(F)(F)F)n(CC(=O)OC)c3=O)cc21
7. C#CCN1C(=O)C2(CCC2)Oc2cc(F)c(-n3c(=O)cc(C(F)(F)F)[nH]c3=O)cc21

20 to 80%
< 20%
< 20%
20 to 80%
< 20%
< 20%
< 20%

Check the records and state pest or weed control at 200 g/ha for C#CCN1C(=O)C2(CC2)Oc2cc(F)c(N3C(=O)C(=O)N(CCC)C3=S)cc21
< 20%

* * *

tested on: Lolium perenne; assay: Pre-emergence herbicidal assay, 96 cell trays, glasshouse; assay type: in vivo; settings: 168 h, second trial (Table 2), Lollium, 0.2 kg/ha, assessed 7 days after treatment, read-out: % control of plant growth
quantity: pest or weed control at 200 g/ha

Use the examples below as a reference point.
C#CCN1C(=O)C2(CC2)Oc2cc(F)c(N3C(=O)c4ccc(OC)cc4C3=O)cc21    < 20%
C#CCN1C(=O)C2(CC2)Oc2cc(F)c(-n3c(=O)cc(C(F)(F)F)n(CCC)c3=O)cc21    20 to 80%
COC(=O)C(C)N1C(=O)C2(CC2)Oc2cc(F)c(N3C(=O)c4ccc(F)cc4C3=O)cc21 (stereo not shown)    < 20%

Consider now this further molecule.
Lab note: record pest or weed control at 200 g/ha of C#CCN1C(=O)C2(CC2)Oc2cc(F)c(N3C(=O)CCC3=O)cc21 tested on Lolium perenne.
80 to 100%

* * *

test system: Lolium perenne; experiment: Pre-emergence herbicidal assay, 96 cell trays, glasshouse; type: in vivo; settings: 168 h, second trial (Table 2), Lollium, 0.2 kg/ha, assessed 7 days after treatment, read-out: % control of plant growth
quantity: pest or weed control at 200 g/ha

Use the examples below as a reference point.
C#CCN1C(=O)C2(CC2)Oc2cc(F)c(N3C(=O)C4CCCN4C3=O)cc21 (stereo not shown)    < 20%
C#CCN1C(=O)C2(CCC2)Oc2cc(F)c(N3C(=O)c4ccc(F)cc4C3=O)cc21    < 20%
COC(=O)C(C)N1C(=O)C2(CC2)Oc2cc(F)c(N3C(=O)C4=C(CCCC4)C3=O)cc21 (stereo not shown)    20 to 80%

Consider now this further compound.
Check the records and state pest or weed control at 200 g/ha for C#CCN1C(=O)C2(CC2)Oc2cc(F)c(-n3c(=O)cc(C(F)(F)F)n(C)c3=O)cc21
20 to 80%

* * *

system: Stellaria media—Chickweed; test: Pre-emergence herbicidal assay, 96 cell trays, glasshouse; format: in vivo; settings: 168 h, first trial (Table 1), 5 kg/ha, assessed 7 days after treatment, read-out: % control of plant growth
quantity: pest or weed control at 5000 g/ha

Use the examples below as a reference point.
C#CCN1C(=O)C2(CC2)Oc2cc(F)c(-n3nc(C(C)(C)C)oc3=O)cc21    80 to 100%
C#CCN1C(=O)C2(CC2)Oc2cc(F)c(N3C(=O)C(=O)N(CCC)C3=S)cc21    20 to 80%
C#CCN1C(=O)C2(CC2)Oc2cc(F)c(-n3c(=O)n(C)c(=S)n(C)c3=O)cc21 [Comparative Example, reference compound]    < 20%

Hi there! I need pest or weed control at 5000 g/ha for each item below, if you can.
1. C#CCN1C(=O)C2(CC2)Oc2cc(F)c(-n3ncc(C(F)(F)F)c(C)c3=O)cc21
2. C#CCN1C(=O)C2(CC2)Oc2cc(F)c(N3C(=O)C4=C(CCCC4)C3=O)cc21

1. 80 to 100%
2. < 20%

* * *

system: Lolium perenne; assay: Pre-emergence herbicidal assay, 96 cell trays, glasshouse; format: in vivo; details: 168 h, first trial (Table 1), Lollium, 1 kg/ha, assessed 7 days after treatment, read-out: % control of plant growth
quantity: pest or weed control at 1000 g/ha

C#CCN1C(=O)C2(CC2)Oc2cc(F)c(-n3ncc(C(F)(F)F)c(C)c3=O)cc21    80 to 100%
C#CCN1C(=O)C2(CC2)Oc2cc(F)c(N3C(=O)C(=O)N(CCC)C3=S)cc21    < 20%

Hi there! I need pest or weed control at 1000 g/ha for each item below, if you can.
1. C#CCN1C(=O)C2(CC2)Oc2cc(F)c(-n3nc(C(C)(C)C)oc3=O)cc21
2. C#CCN1C(=O)C2(CC2)Oc2cc(F)c(N3C(=O)C4=C(CCCC4)C3=O)cc21

1: 20 to 80%; 2: 20 to 80%

Lab note: record pest or weed control at 1000 g/ha of C#CCN1C(=O)C2(CC2)Oc2cc(F)c(-n3c(=O)n(C)c(=S)n(C)c3=O)cc21 [Comparative Example, reference compound] tested on Lolium perenne.
20 to 80%

* * *

tested on: Stellaria media—Chickweed; experiment: Post-emergence herbicidal assay, 96 cell trays, glasshouse; format: in vivo; conditions: 168 h, first trial (Table 1), 0.2 kg/ha, assessed 7 days after treatment, read-out: % control of plant growth
quantity: pest or weed control at 200 g/ha

Use the examples below as a reference point.
C#CCN1C(=O)C2(CC2)Oc2cc(F)c(-n3nc(C(C)(C)C)oc3=O)cc21    20 to 80%
C#CCN1C(=O)C2(CC2)Oc2cc(F)c(N3C(=O)C(=O)N(CCC)C3=S)cc21    20 to 80%
C#CCN1C(=O)C2(CC2)Oc2cc(F)c(N3C(=O)C4=C(CCCC4)C3=O)cc21    < 20%

Hi there! I need pest or weed control at 200 g/ha for each item below, if you can.
1. C#CCN1C(=O)C2(CC2)Oc2cc(F)c(-n3ncc(C(F)(F)F)c(C)c3=O)cc21
2. C#CCN1C(=O)C2(CC2)Oc2cc(F)c(-n3c(=O)n(C)c(=S)n(C)c3=O)cc21 [Comparative Example, reference compound]

20 to 80%
< 20%

* * *

system: Stellaria media—Chickweed; experiment: Pre-emergence herbicidal assay, 96 cell trays, glasshouse; assay type: in vivo; details: 168 h, second trial (Table 2), 1 kg/ha, assessed 7 days after treatment, read-out: % control of plant growth
quantity: pest or weed control at 1000 g/ha

C#CCN1C(=O)C2(CC2)Oc2cc(F)c(-n3c(=O)n(C)c(=S)n(C)c3=O)cc21 [Comparative Example, reference compound]    80 to 100%
C#CCN1C(=O)C2(CC2)Oc2cc(F)c(-n3c(=O)cc(C(F)(F)F)n(CC#C)c3=O)cc21 [Example 41]    80 to 100%
C#CCN1C(=O)C2(CC2)Oc2cc(F)c(-n3c(=O)cc(C(F)(F)F)n(C)c3=O)cc21 [Example 34]    80 to 100%
C#CCN1C(=O)C2(CCC2)Oc2cc(F)c(-n3c(=O)cc(C(F)(F)F)[nH]c3=O)cc21 [Example 33]    20 to 80%
CCOC(=O)C(C)N1C(=O)C2(CC2)Oc2cc(F)c(N3C(=O)C4=C(CCCC4)C3=O)cc21 (centres unmarked) [Example 18]    80 to 100%
COC(=O)C(C)N1C(=O)C2(CC2)Oc2cc(F)c(N3C(=O)C4=C(CCCC4)C3=O)cc21 (centres unmarked) [Example 15]    80 to 100%
C#CCN1C(=O)C2(CC2)Oc2cc(F)c(N3C(=O)c4ccc(C)cc4C3=O)cc21 [Example 8]    80 to 100%
O=C1c2ccc(F)cc2C(=O)N1c1cc2c(cc1F)OC1(CC1)C(=O)N2CC1CC1 [Example 26]    80 to 100%
C#CCN1C(=O)C2(CC2)Oc2cc(F)c(N3C(=O)c4cccc(F)c4C3=O)cc21 [Example 6]    20 to 80%
C#CCN1C(=O)C2(CC2)Oc2cc(F)c(N3C(=O)c4ccc(O)cc4C3=O)cc21 [Example 9]    < 20%

Hi there! I need pest or weed control at 1000 g/ha for each item below, if you can.
1. O=C1c2ccc(F)cc2C(=O)N1c1cc2c(cc1F)OC1(CC1)C(=O)N2CC#CI [Example 30]
2. C#CCN1C(=O)C2(CC2)Oc2cc(F)c(N3C(=O)c4ccccc4C3=O)cc21 [Example 7]
3. C#CCN1C(=O)C2(CC2)Oc2cc(F)c(N3C(=O)c4ccc(OC)cc4C3=O)cc21 [Example 10]
4. C#CCN1C(=O)C2(CC2)Oc2cc(F)c(N3C(=O)C4CCCN4C3=O)cc21 (centres unmarked) [Example 44]

80 to 100%
80 to 100%
80 to 100%
80 to 100%

Hi there! I need pest or weed control at 1000 g/ha for each item below, if you can.
1. C#CCN1C(=O)C2(CC2)Oc2cc(F)c(N3C(=O)C4CC4C3=O)cc21 (centres unmarked) [Example 13]
2. C#CCN1C(=O)C2(CC2)Oc2cc(F)c(N3C(=O)C(=O)N(CCC)C3=S)cc21 [Example 2]
3. CCCN1C(=O)C2(CC2)Oc2cc(F)c(N3C(=O)c4ccc(F)cc4C3=O)cc21 [Example 22]
4. C#CCN1C(=O)C2(CCC2)Oc2cc(F)c(N3C(=O)c4ccc(F)cc4C3=O)cc21 [Example 23]
5. C#CCN1C(=O)C2(CC2)Oc2cc(F)c(N3C(=O)CC(C)CC3=O)cc21 [Example 29]
6. C#CCN1C(=O)C2(CN(C(=O)OCc3ccccc3)C2)Oc2cc(F)c(N3C(=O)c4ccc(F)cc4C3=O)cc21 [Example 25]
7. C#CCN1C(=O)C2(CC2)Oc2cc(F)c(N3C(=O)C4CCCCN4C3=O)cc21 (centres unmarked) [Example 47]

80 to 100%
20 to 80%
80 to 100%
80 to 100%
80 to 100%
20 to 80%
80 to 100%
